system: mouse melanoma B16 cells; details: 72 h
No end group written: not given here.
property_label: EC50 (nM)
Write it as a number; the unit nM goes unstated.

EC50 for SYSMEHFR [ACTH(1–8)] is 80
